Hello, the source for this data is the supplement of paper PMC10724198, in case you need it.

# Test system: Saccharomyces cerevisiae
# protocol-notes: protein stability index of tFT-peptide fusion (C-terminal peptide) (PSI (0-1 scale)); higher = more stable (slower turnover)
# condition-label: genetic background: das1 deletion; temperature: 30 C
assay-metric: protein stability index
Just the number, please, no unit attached.

Field: protein stability index (Saccharomyces cerevisiae). Entry: STFSIVSSISLW [YPL044C C-terminal 12 aa]
0.689

Field: protein stability index (Saccharomyces cerevisiae). Entry: TKVYFLGRDSSV [NDE2 C-terminal 12 aa]
0.688

Field: protein stability index (Saccharomyces cerevisiae). Entry: KALELILNILEH [SNU56 C-terminal 12 aa]
0.683

Field: protein stability index (Saccharomyces cerevisiae). Entry: ESPIDAEKNFAR [INA1 C-terminal 12 aa]
0.693

Field: protein stability index (Saccharomyces cerevisiae). Entry: ALDAERYLSAQE [TRR2 C-terminal 12 aa]
0.698

Field: protein stability index (Saccharomyces cerevisiae). Entry: LKNGDKPHMLKF [RPL6A C-terminal 12 aa]
0.679

Field: protein stability index (Saccharomyces cerevisiae). Entry: KLGLFRHIFSRK [LRE1 C-terminal 12 aa]
0.691
